- Tested system: Neuronal acetylcholine receptor; alpha4/beta2 (Rattus norvegicus, UniProt P09483+P12390)
- Sequence (P09483 whole entry): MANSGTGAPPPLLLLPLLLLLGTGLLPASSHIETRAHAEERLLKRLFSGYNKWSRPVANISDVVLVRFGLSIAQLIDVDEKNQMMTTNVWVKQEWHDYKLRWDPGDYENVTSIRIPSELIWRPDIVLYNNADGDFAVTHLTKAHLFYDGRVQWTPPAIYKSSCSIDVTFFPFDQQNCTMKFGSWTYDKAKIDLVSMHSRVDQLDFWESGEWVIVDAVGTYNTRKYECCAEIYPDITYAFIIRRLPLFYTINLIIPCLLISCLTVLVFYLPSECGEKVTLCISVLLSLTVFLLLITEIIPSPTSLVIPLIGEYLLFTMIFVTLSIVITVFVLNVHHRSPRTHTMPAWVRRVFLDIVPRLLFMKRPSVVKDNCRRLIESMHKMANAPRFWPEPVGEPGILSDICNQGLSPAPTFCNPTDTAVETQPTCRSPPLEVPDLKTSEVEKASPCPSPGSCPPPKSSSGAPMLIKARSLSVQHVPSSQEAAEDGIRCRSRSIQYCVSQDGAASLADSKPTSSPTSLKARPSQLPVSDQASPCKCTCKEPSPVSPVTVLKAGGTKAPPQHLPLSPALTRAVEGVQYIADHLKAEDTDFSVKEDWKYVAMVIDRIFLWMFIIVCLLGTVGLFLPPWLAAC
- Sequence (P12390 whole entry): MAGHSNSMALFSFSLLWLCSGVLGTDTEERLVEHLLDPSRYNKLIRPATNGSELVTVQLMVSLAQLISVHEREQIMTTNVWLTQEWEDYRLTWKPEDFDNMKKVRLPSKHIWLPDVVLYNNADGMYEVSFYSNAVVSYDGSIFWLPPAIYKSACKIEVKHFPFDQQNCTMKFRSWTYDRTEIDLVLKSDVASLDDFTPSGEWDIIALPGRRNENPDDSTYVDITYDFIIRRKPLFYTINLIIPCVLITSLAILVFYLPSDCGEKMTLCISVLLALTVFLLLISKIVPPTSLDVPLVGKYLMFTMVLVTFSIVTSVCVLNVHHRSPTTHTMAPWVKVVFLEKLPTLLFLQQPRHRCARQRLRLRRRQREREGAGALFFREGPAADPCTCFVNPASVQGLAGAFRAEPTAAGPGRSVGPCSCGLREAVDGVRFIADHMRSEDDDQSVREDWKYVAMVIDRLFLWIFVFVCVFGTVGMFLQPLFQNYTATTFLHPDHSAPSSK
- Test name: Displacement of [3H]-epibatidine from alpha4beta2-nACHR in rat cerebral cortex membranes preincubated for 30 mins followed by overnight incubation with [3H]-epibatine
- Type: cell membranes, Membrane
Reported endpoint: log10(Ki) (log10 of the value in nM)

1) CN1CCC[C@H]1COc1cc(O)cc(C#CCCCCO)c1
1.37
2) CN1CCC[C@H]1COc1cc(O)cc(-c2ccccc2)c1
2.72
3) CN1CCC[C@H]1COc1cccc([N+](=O)[O-])c1
1.49
4) CN1CCC[C@H]1COc1cc(O)cc(Br)c1
2.27
5) CN1CCC[C@H]1COc1cc(C#CCCCCO)cc([N+](=O)[O-])c1
1.15
6) CN1CCC[C@H]1COc1cccc(C#CCCCCO)c1
3.64
7) CN1CCC[C@H]1COc1cc(-c2ccccc2)cc([N+](=O)[O-])c1
2.52
8) CN1CCC[C@H]1COc1cc(O)cc(-c2ccc(O)cc2)c1
0.58
9) COc1cccc(OC[C@@H]2CCCN2C)c1
2.78
10) CN1CCC[C@H]1COc1cc(Br)cc([N+](=O)[O-])c1
1.74
11) CN1CCC[C@H]1COc1cc(-c2ccc(O)cc2)cc([N+](=O)[O-])c1
1.08

These measurements were taken from ChEMBL document CHEMBL3867476.
